# IC50 listing for each entry below
TARGET UNDER TEST: human recombinant ENPP1 (Homo sapiens, UniProt P22413)
Sequence (P22413 whole entry): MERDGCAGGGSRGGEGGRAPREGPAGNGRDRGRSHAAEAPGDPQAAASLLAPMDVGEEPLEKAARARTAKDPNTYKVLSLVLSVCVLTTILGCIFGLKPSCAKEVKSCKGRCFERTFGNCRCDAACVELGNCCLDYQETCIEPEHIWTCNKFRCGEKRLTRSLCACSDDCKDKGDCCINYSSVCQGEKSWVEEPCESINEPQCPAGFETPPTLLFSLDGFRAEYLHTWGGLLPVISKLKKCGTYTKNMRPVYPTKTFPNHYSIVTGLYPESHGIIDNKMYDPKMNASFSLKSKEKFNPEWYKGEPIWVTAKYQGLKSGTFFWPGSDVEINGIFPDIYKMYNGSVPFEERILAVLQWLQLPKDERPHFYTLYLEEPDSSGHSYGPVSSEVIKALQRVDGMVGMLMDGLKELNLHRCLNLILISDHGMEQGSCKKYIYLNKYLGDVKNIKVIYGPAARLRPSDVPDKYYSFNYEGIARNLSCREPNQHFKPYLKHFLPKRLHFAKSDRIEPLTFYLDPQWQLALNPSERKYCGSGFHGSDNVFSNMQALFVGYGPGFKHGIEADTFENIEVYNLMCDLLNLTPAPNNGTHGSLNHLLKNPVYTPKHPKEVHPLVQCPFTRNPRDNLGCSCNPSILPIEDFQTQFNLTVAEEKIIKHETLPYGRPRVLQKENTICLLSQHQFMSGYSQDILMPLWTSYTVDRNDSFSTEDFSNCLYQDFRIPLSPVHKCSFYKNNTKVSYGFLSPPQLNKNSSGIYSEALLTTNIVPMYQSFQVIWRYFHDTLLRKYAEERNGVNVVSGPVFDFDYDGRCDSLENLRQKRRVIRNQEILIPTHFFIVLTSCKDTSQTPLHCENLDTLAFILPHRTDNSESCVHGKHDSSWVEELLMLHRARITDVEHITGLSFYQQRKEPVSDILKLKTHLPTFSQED
PROCEDURE TEXT: ENPP1 enzyme assay with cGAMP substrate (AMP-Glo luminescence)
ASSAY CONDITIONS: human recombinant ENPP1 3 ng/reaction, cGAMP 5 μM, 37° C. 90 minutes, read-out: Enzymatic activity (ENPP1 IC50)
Counter-ions that a name gives are not always drawn.

Solved cases below.
>  <COMPOUND>
COc1cc2c(-c3ccc(CN(C)S(N)(=O)=O)cc3F)n[nH]c(=O)c2cc1OC [Compound No. 114, hydrochloride]

>  <TEST RESULT>
1 to 10 µM

$$$$
>  <COMPOUND>
Cn1nc(-c2cccc(NS(N)(=O)=O)c2)c2ccccc2c1=O [Compound No. 88, hydrochloride]

>  <TEST RESULT>
< 1 µM

$$$$
>  <COMPOUND>
COc1cc2c(Cc3ccc4c(c3)CCN4)nn(C)c(=O)c2cc1OC [Example 166, hydrochloride]

>  <TEST RESULT>
> 10 µM

$$$$
>  <COMPOUND>
CC(C)(C)OC(=O)NS(=O)(=O)Nc1cccc(-c2nn(Cc3ccccc3)c(=O)c3ccccc23)c1

>  <TEST RESULT>
> 10 µM

$$$$
>  <COMPOUND>
CCn1nc(-c2ccc(CNS(N)(=O)=O)cc2)c2ccccc2c1=O [Compound No. 98, hydrochloride]

>  <TEST RESULT>
1 to 10 µM

$$$$

Q) Given CN(c1ccc(Cc2n[nH]c(=O)c3ccccc23)cc1)S(N)(=O)=O [Example 184, hydrochloride] , state its recorded IC50.
A) 1 to 10 µM

Q) Please do the same for COc1cc2c(-c3ccc(CN(C)S(N)(=O)=O)cc3C(F)(F)F)n[nH]c(=O)c2cc1OC [Compound No. 118, hydrochloride] as well.
A) > 10 µM

Q) Please do the same for NS(=O)(=O)N1CCc2cc(-c3n[nH]c(=O)c4ccccc34)ccc2C1 [Compound No. 128, hydrochloride] as well.
A) 1 to 10 µM

====

TARGET UNDER TEST: human recombinant ENPP1 (Homo sapiens, UniProt P22413)
PROCEDURE TEXT: ENPP1 enzyme assay with cGAMP substrate (AMP-Glo luminescence)
ASSAY CONDITIONS: human recombinant ENPP1 3 ng/reaction, cGAMP 5 μM, 37° C. 90 minutes, read-out: Enzymatic activity (ENPP1 IC50)
Counter-ions that a name gives are not always drawn.
PROPERTY MEASURED: IC50

>  <COMPOUND>
CC(C)n1nc(-c2ccc(CN)cc2)c2ccccc2c1=O [Compound No. 39, hydrochloride]

>  <TEST RESULT>
> 10 µM

$$$$
>  <COMPOUND>
CC(C)(N)c1ccc(-c2n[nH]c(=O)c3ccccc23)cc1 [Compound No. 52, hydrochloride]

>  <TEST RESULT>
1 to 10 µM

$$$$
>  <COMPOUND>
COc1ccc2c(-c3ccc(CN)cc3)n[nH]c(=O)c2c1 [Compound No. 47, hydrochloride]

>  <TEST RESULT>
< 1 µM

$$$$
>  <COMPOUND>
COc1cc2c(Cc3ccc4c(c3)CCN4S(N)(=O)=O)nn(C)c(=O)c2cc1OC [Example 188, hydrochloride]

>  <TEST RESULT>
< 1 µM

$$$$
>  <COMPOUND>
COc1cc2c(Cc3ccc(N)cc3)n[nH]c(=O)c2cc1OC [Example 160, hydrochloride]

>  <TEST RESULT>
> 10 µM

$$$$

Q) Given NS(=O)(=O)Nc1ccc(-c2n[nH]c(=O)c3ccccc23)cc1 [Compound No. 91] , state its recorded IC50.
A) 1 to 10 µM

Q) Please do the same for COc1cc2c(Nc3ccc(NS(N)(=O)=O)cc3)nn(C)c(=O)c2cc1OC [Compound No. 140, hydrochloride] as well.
A) > 10 µM

Q) Please do the same for Cn1nc(-c2ccc(CNC(=O)OC(C)(C)C)cc2)c2ccccc2c1=O [Compound No. 9] as well.
A) > 10 µM

Q) Please do the same for NCc1ccc(-c2nn(Cc3ccccc3)c(=O)c3ccccc23)cc1 [Compound No. 41, hydrochloride] as well.
A) 1 to 10 µM

Q) Please do the same for COc1cc2c(-c3ccc(CNS(N)(=O)=O)c(C(F)(F)F)c3)n[nH]c(=O)c2cc1OC [Compound No. 119, hydrochloride] as well.
A) 1 to 10 µM

Q) Please do the same for Cn1nc(Cc2ccc(N)cc2)c2ccccc2c1=O [Example 159, hydrochloride] as well.
A) > 10 µM

meta.source: patent US20230159469A1
